- target_entity: chimeric BTLA of humanised-BTLA mice (human extracellular region, murine transmembrane and signaling … (human; mouse, UniProt Q7TSA3 184-306, limits assumed)
- Sequence (Q7TSA3 other isoform, or with tags, fused parts or gaps mutant limits assumed): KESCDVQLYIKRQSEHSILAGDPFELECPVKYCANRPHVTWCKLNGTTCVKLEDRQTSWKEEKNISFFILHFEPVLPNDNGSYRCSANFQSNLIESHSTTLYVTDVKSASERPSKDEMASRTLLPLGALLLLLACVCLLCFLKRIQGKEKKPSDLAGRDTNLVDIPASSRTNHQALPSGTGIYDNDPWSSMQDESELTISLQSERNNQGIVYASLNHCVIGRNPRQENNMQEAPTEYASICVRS
- protocol_notes: cell-based or functional assay
// reported AntiCD3/CD28 (CD69+ CD4 T cells) repeat 2, % inhibition for each item listed
API: value field is a number in %; no unit string.

Use the examples below as a reference point.
{"binder": "2.8.6 (antibody, IgG1, V domains shown) VH: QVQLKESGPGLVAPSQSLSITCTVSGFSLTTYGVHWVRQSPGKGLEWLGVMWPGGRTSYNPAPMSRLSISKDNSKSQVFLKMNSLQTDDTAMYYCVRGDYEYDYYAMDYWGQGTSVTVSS VL: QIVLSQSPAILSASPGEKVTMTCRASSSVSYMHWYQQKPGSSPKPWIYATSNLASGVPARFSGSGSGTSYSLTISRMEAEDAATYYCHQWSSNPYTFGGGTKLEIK", "measured_result": 67}
{"binder": "16H2 (antibody, IgG1, V domains shown) VH: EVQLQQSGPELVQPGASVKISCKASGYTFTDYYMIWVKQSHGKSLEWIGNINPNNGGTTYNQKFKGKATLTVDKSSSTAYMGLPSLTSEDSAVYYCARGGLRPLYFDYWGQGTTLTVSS VL: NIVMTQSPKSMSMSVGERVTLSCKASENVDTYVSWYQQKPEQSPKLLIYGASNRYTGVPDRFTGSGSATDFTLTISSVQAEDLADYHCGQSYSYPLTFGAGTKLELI", "measured_result": 60}
{"binder": "15C6 (antibody, IgG1, V domains shown) VH: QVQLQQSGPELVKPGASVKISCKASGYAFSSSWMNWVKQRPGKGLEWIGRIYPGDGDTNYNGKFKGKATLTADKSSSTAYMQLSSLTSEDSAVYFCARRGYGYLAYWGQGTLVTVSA VL: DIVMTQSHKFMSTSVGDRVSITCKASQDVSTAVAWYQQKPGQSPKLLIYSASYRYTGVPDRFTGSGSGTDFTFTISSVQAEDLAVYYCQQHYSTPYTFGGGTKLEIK", "measured_result": 19}
{"binder": "831 (antibody, V domains shown) VH: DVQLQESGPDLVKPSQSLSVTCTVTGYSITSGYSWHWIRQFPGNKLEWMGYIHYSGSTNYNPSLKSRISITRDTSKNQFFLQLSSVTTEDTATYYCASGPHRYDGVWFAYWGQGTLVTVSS VL: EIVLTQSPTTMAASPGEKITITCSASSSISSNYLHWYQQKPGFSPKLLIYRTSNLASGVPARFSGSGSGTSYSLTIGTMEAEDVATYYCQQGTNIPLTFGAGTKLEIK", "measured_result": 53}

Sure, the documented AntiCD3/CD28 (CD69+ CD4 T cells) repeat 2, % inhibition for 14D4 (antibody, IgG1, V domains shown) VH: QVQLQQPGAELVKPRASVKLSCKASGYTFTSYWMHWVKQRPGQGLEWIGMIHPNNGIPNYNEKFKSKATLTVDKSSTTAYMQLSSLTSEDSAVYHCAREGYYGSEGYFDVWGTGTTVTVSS VL: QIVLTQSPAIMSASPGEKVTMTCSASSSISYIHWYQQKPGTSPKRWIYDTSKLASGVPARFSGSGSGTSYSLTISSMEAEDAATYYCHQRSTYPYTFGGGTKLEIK is 52
